- System: Sabra mice
- method: Zymosan-induced inflammatory paw swelling, measured with a caliper
- Assay type: in vivo
- condition.description: zymosan in left hind paw, paw swelling by caliper, 300 milligrams formulation (cannabinoid in propylene glycol, xylitol solid phase) in 15 milliliters water, oral gavage
measurement.name: reduction in inflammation relative to controls

Below, each entry is followed by its recorded reduction in inflammation relative to controls result.
C=C(C)[C@@H]1CCC(C)=C[C@H]1c1c(O)cc(CCC)cc1O = robust reduction
CCCCCc1cc(O)c2c(c1)OC(C)(C)c1ccc(C)cc1-2 = modest reduction
CCCCCc1cc(O)c2c(c1)OC(C)(C)[C@@H]1CC=C(C)C[C@@H]21 = modest reduction
CCCCCc1cc(O)c(C/C=C(\C)CCC=C(C)C)c(O)c1 = modest reduction

Let's switch to this molecule now.
Item C=C(C)[C@@H]1CCC(C)=C[C@H]1C1=C(O)C(=O)C(CCCCC)=CC1=O : provide reduction in inflammation relative to controls
robust reduction

Value source: patent US12349706B2
